- experimental-system: T1, TNFR1 (Homo sapiens, UniProt P19438)
- T1 chain: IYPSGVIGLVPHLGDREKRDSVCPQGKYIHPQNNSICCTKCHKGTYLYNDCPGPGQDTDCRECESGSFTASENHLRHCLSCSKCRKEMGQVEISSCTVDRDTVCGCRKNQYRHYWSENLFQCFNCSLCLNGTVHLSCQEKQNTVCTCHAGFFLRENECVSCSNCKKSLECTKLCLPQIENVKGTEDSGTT
- measurement-description: yeast display SC50
measure-name: apparent Kd (screen) (nM)
Give the value in nM but do not write nM after it.

L38K (designed binder) MTLQELLREEALRRAEAEAFRYALELLAEKFPEQKEYKLDLAEEIESQIRSLSGVDVEDVRKFLDKEWAWVKELLAEHPAELAEVEAARAARLAELRAEVEAKVAA    4.39

Next binder, apparent Kd (screen) to be filled in.
Q: I would be grateful if you could share the reported apparent Kd (screen) for F31S (designed binder) MTLQELLREEALRRAEAEAFRYALELLAEKSPEQKEYLLDLAEEIESQIRSLSGVDVEDVRKFLDKEWAWVKELLAEHPAELAEVEAARAARLAELRAEVEAKVAA .
Ans: 0.956
